molecular target: human full-length MKNK1 (Homo sapiens, UniProt Q9BUB5, T385D); construct: GST (Glutathione-S-Transferase) (N); purchased Carna Biosciences 02-145; host or cells: insect cells (baculovirus expression system); test: MKNK1 kinase high ATP assay (TR-FRET, 2 mM ATP); format: biochemical; settings: ATP 2 mM, 15 min preincubation, GST-MKNK1 (T344D)
Sequence (Q9BUB5 1-424 isoform Q9BUB5-2 T344D): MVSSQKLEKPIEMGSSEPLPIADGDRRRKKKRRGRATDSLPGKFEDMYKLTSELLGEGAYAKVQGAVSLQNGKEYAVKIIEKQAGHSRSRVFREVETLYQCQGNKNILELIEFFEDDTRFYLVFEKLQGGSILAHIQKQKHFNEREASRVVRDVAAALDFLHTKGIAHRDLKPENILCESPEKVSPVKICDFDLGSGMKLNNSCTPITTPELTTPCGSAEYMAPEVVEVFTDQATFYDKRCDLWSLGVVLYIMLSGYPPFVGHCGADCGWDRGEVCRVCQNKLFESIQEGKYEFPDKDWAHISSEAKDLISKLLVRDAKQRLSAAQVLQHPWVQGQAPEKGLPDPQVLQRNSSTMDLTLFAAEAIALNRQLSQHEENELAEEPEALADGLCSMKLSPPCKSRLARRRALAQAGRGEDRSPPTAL
# pIC50 values compiled below
When answering, recall that pIC50 equals minus log10 of the concentration in mol/L, and write that number alone.

COc1ccc2cc(-c3cnc4ccc(OCCN5CCNC5=O)nn34)oc2c1 [Example 12] :: 5.62
COc1ccc2cc(-c3cnc4ccc(O[C@H](C)CN)nn34)oc2c1 [Example 15] :: 5.55

Task: Identify pIC50 associated with the compound COc1ccc2cc(-c3cnc4ccc(OCCCCN(C)C)nn34)oc2c1 [Example 9]
Result: 6.00

Task: Identify pIC50 associated with the compound CC(=O)NC[C@@H](C)Oc1ccc2ncc(-c3cc4ccc(O)cc4o3)n2n1 [Example 5]
Result: 7.42

Task: Identify pIC50 associated with the compound COc1ccc2cc(-c3cnc4ccc(OCCCCN)nn34)oc2c1 [Example 8]
Result: 6.10

Task: Identify pIC50 associated with the compound C[C@H](CN)Oc1ccc2ncc(-c3cc4ccc(O)cc4o3)n2n1 [Example 4]
Result: 7.38

Task: Identify pIC50 associated with the compound COCCCOc1ccc2ncc(-c3cc4ccc(OC)cc4o3)n2n1 [Example 2]
Result: 5.26

====

# pIC50 values compiled below
molecular target: human full-length MKNK1 (Homo sapiens); construct: GST (Glutathione-S-Transferase) (N); assay: MKNK1 kinase assay (TR-FRET, 10 μM ATP); conditions: ATP 10 μM, 15 min preincubation, GST-MKNK1 (T344D)
When answering, recall that pIC50 equals minus log10 of the concentration in mol/L, and write that number alone.

Worked cases, pIC50 given:
CC(=O)NC[C@@H](C)Oc1ccc2ncc(-c3cc4ccc(O)cc4o3)n2n1 [Example 5] :: 7.40
COc1ccc2cc(-c3cnc4ccc(O[C@H](C)CN)nn34)oc2c1 [Example 15] :: 5.88
COCCCOc1ccc2ncc(-c3cc4ccc(OC)cc4o3)n2n1 [Example 2] :: 6.06
COc1ccc2cc(-c3cnc4ccc(O[C@H](C)CNC(C)=O)nn34)oc2c1 [Example 14] :: 6.00
COc1ccc2cc(-c3cnc4ccc(OCC(C)(C)CN(C)C)nn34)oc2c1 [Example 7] :: 5.26
COc1ccc2cc(-c3cnc4ccc(OCCN)nn34)oc2c1 [Example 3] :: 6.01
C[C@H](CN)Oc1ccc2ncc(-c3cc4ccc(O)cc4o3)n2n1 [Example 4] :: 7.31
COc1ccc2cc(-c3cnc4ccc(OCCCN5CCOCC5)nn34)oc2c1 [Example 13] :: 6.25
COc1ccc2cc(-c3cnc4ccc(OCCCN)nn34)oc2c1 [Example 6] :: 6.46
COc1ccc2cc(-c3cnc4ccc(OCCCCN(C)C)nn34)oc2c1 [Example 9] :: 6.36

Turning now to a further record.
Task: Identify pIC50 associated with the molecule CCN(CC)CCCC(C)Oc1ccc2ncc(-c3cc4ccc(OC)cc4o3)n2n1 (stereo not drawn) [Example 10]
Result: 6.90

====

molecular target: human full-length MKNK1 (Homo sapiens, UniProt Q9BUB5, T385D); construct: GST (Glutathione-S-Transferase) (N); experiment: MKNK1 kinase high ATP assay (TR-FRET, 2 mM ATP); conditions: ATP 2 mM, 15 min preincubation, GST-MKNK1 (T344D)
# pIC50 values compiled below
When answering, recall that pIC50 equals minus log10 of the concentration in mol/L, and write that number alone.

Worked cases, pIC50 given:
COc1ccc2cc(-c3cnc4ccc(O[C@H](C)CNC(C)=O)nn34)oc2c1 :: 5.42
COc1ccc2cc(-c3cnc4ccc(OCCCO)nn34)oc2c1 :: 5.59
COc1ccc2cc(-c3cnc4ccc(OCCN)nn34)oc2c1 :: 5.59
COc1ccc2cc(-c3cnc4ccc(OCC(C)(C)CN(C)C)nn34)oc2c1 :: 4.83

Turning now to a further record.
Task: Identify pIC50 associated with the compound CCN(CC)CCCC(C)Oc1ccc2ncc(-c3cc4ccc(OC)cc4o3)n2n1 (centres unmarked)
Result: 6.45
